Experiment: Human liver S9 fraction stability
Assay type: in vitro ADME
Details: human, pooled human liver S9 fraction, pH 7.4
Where a SMILES comes first, the peptide text is derived from it. [ ]: non-standard residue; d: D form. The star is where a group is joined. Octanoyl = CCCCCCCC(=O)*; Dap = NC[C@H](N)C(=O)O
measured.attribute: half-life at 3 μM (min)
The figure you give is taken to be in min; do not add the unit.

-- ask Indicate the recorded half-life at 3 μM value for this compound: CCCCCCCC(=O)NC[C@H](NC(=O)[C@H](CO)NC(=O)CN)C(=O)N[C@@H](Cc1ccccc1)C(=O)N[C@@H](CC(C)C)C(=O)N[C@@H](CO)C(=O)N1CCC[C@H]1C(=O)N[C@@H](CCC(=O)O)C(=O)O [compound 2, [Dpr^3(n-octanoyl)]ghrelin(1–8)] (H-GS[Dap](Octanoyl)FLSPE-OH)
-- reply 34.2

* * *

Test: Human liver S9 fraction stability
Assay type: in vitro ADME
Conditions: human, pooled human liver S9 fraction, pH 7.4, S9 t1/2, pooled human liver S9 fraction 1 mg/mL, peptide 3 μM, 37 °C, over 4 h
Where a SMILES comes first, the peptide text is derived from it. [ ]: non-standard residue; d: D form. The star is where a group is joined. 1Nal = N[C@@H](Cc1cccc2ccccc12)C(=O)O; Nicotinoyl(6-F) = O=C(c1ccc(F)nc1)*; Abu = CC[C@H](N)C(=O)O; Dap = NC[C@H](N)C(=O)O; Inp = O=C(O)C1CCNCC1
measured.attribute: half-life at 3 μM (min)
The figure you give is taken to be in min; do not add the unit.

-- ask Indicate the recorded half-life at 3 μM value for this compound: CC[C@H](NC(=O)[C@H](CC(C)C)NC(=O)[C@H](Cc1cccc2ccccc12)NC(=O)[C@H](CNC(=O)c1ccc(F)nc1)NC(=O)[C@H](CO)NC(=O)C1CCNCC1)C(=O)N1CCC[C@H]1C(=O)N[C@H](C(N)=O)[C@@H](C)O [compound 20, Inp-S-Dpr(6-FN)-1Nal-L-Abu-PT-NH2] (H-[Inp]S[Dap](Nicotinoyl(6-F))[1Nal]L[Abu]PT-NH2)
-- reply 27.6

* * *

Biological target: growth hormone secretagogue receptor 1a (GHSR) (Homo sapiens)
Assay: biochemical
Where a SMILES comes first, the peptide text is derived from it. [ ]: non-standard residue; d: D form. The star is where a group is joined. 1Nal = N[C@@H](Cc1cccc2ccccc12)C(=O)O; Nicotinoyl(6-F) = O=C(c1ccc(F)nc1)*; hSer = N[C@@H](CCO)C(=O)O; Abu = CC[C@H](N)C(=O)O; Dap = NC[C@H](N)C(=O)O; Inp = O=C(O)C1CCNCC1
measured.attribute: pIC50
Note on pIC50: it is the negative log10 of concentration, concentration in mol/L.

-- ask Indicate the recorded pIC50 value for this molecule: CC(C)C[C@H](NC(=O)[C@H](Cc1cccc2ccccc12)NC(=O)[C@H](CNC(=O)c1ccc(F)nc1)NC(=O)[C@H](CO)NC(=O)C1CCNCC1)C(=O)N[C@@H](CCO)C(=O)N1CCC[C@H]1C(=O)N[C@H](C(N)=O)[C@@H](C)O [compound 17, Inp-S-Dpr(6-FN)-1Nal-L-Hse-PT-NH2] (H-[Inp]S[Dap](Nicotinoyl(6-F))[1Nal]L[hSer]PT-NH2)
-- reply 8.84

-- ask Indicate the recorded pIC50 value for this molecule: CC[C@H](NC(=O)[C@H](CC(C)C)NC(=O)[C@H](Cc1cccc2ccccc12)NC(=O)[C@H](CNC(=O)c1ccc(F)nc1)NC(=O)[C@H](CO)NC(=O)C1CCNCC1)C(=O)N1CCC[C@H]1C(=O)N[C@H](C(N)=O)[C@@H](C)O [compound 20, Inp-S-Dpr(6-FN)-1Nal-L-Abu-PT-NH2] (H-[Inp]S[Dap](Nicotinoyl(6-F))[1Nal]L[Abu]PT-NH2)
-- reply 8.60

-- ask Indicate the recorded pIC50 value for this molecule: CC(C)C[C@H](NC(=O)[C@H](Cc1cccc2ccccc12)NC(=O)[C@H](CNC(=O)c1ccc(F)nc1)NC(=O)[C@H](CO)NC(=O)C1CCNCC1)C(=O)N[C@@H](CC(N)=O)C(=O)N1CCC[C@H]1C(=O)N[C@H](C(N)=O)[C@@H](C)O [compound 18, Inp-S-Dpr(6-FN)-1Nal-LNPT-NH2] (H-[Inp]S[Dap](Nicotinoyl(6-F))[1Nal]LNPT-NH2)
-- reply 8.72

* * *

Assay: Human liver S9 fraction stability
Assay type: in vitro ADME
Conditions: human, pooled human liver S9 fraction, pH 7.4, S9 t1/2, pooled human liver S9 fraction 1 mg/mL, peptide 3 μM, 37 °C, over 4 h
Where a SMILES comes first, the peptide text is derived from it. [ ]: non-standard residue; d: D form. The star is where a group is joined. 1Nal = N[C@@H](Cc1cccc2ccccc12)C(=O)O; Nicotinoyl(6-F) = O=C(c1ccc(F)nc1)*; Dap = NC[C@H](N)C(=O)O; Inp = O=C(O)C1CCNCC1
measured.attribute: half-life at 3 μM (min)
The figure you give is taken to be in min; do not add the unit.

-- ask Indicate the recorded half-life at 3 μM value for this compound: CC(C)C[C@H](NC(=O)[C@H](Cc1cccc2ccccc12)NC(=O)[C@H](CNC(=O)c1ccc(F)nc1)NC(=O)[C@H](CO)NC(=O)C1CCNCC1)C(=O)N[C@@H](CS)C(=O)N1CCC[C@H]1C(=O)N[C@H](C(N)=O)[C@@H](C)O [compound 15, Inp-S-Dpr(6-FN)-1Nal-LCPT-NH2] (H-[Inp]S[Dap](Nicotinoyl(6-F))[1Nal]LCPT-NH2)
-- reply 57

* * *

I'd be grateful if you could share measured half-life at 3 μM for these entries.
Assay: Human liver S9 fraction stability
Assay type: in vitro ADME
Conditions: human, pooled human liver S9 fraction, pH 7.4, S9 t1/2, pooled human liver S9 fraction 1 mg/mL, peptide 3 μM, 37 °C, over 4 h
Where a SMILES comes first, the peptide text is derived from it. [ ]: non-standard residue; d: D form. The star is where a group is joined. 1Nal = N[C@@H](Cc1cccc2ccccc12)C(=O)O; Nicotinoyl(6-F) = O=C(c1ccc(F)nc1)*; Cha = N[C@@H](CC1CCCCC1)C(=O)O; NMeS = CN[C@@H](CO)C(=O)O; Dap = NC[C@H](N)C(=O)O; Inp = O=C(O)C1CCNCC1

-- ask Indicate the recorded half-life at 3 μM value for this molecule: C[C@@H](O)[C@H](NC(=O)[C@@H]1CCCN1C(=O)[C@H](CO)NC(=O)[C@H](CC1CCCCC1)NC(=O)[C@H](Cc1cccc2ccccc12)NC(=O)[C@H](CNC(=O)c1ccc(F)nc1)NC(=O)[C@H](CO)NC(=O)C1CCNCC1)C(N)=O [compound 14, Inp-S-Dpr(6-FN)-1Nal-Cha-SPT-NH2] (H-[Inp]S[Dap](Nicotinoyl(6-F))[1Nal][Cha]SPT-NH2)
-- reply 1.18 h

-- ask Indicate the recorded half-life at 3 μM value for this molecule: CC(C)C[C@H](NC(=O)[C@H](Cc1cccc2ccccc12)NC(=O)[C@H](CNC(=O)c1ccc(F)nc1)NC(=O)[C@H](CO)NC(=O)C1CCNCC1)C(=O)N(C)[C@@H](CO)C(=O)N1CCC[C@H]1C(=O)N[C@H](C(N)=O)[C@@H](C)O [compound 22, Inp-S-Dpr(6-FN)-1Nal-L-S(N-Me)-PT-NH2] (H-[Inp]S[Dap](Nicotinoyl(6-F))[1Nal]L[NMeS]PT-NH2)
-- reply > 4 h

-- ask Indicate the recorded half-life at 3 μM value for this molecule: CC(C)C[C@H](NC(=O)[C@H](Cc1cccc2ccccc12)NC(=O)[C@H](CNC(=O)c1ccc(F)nc1)NC(=O)[C@H](CO)NC(=O)C1CCNCC1)C(=O)N[C@H](CO)C(=O)N1CCC[C@H]1C(=O)N[C@H](C(N)=O)[C@@H](C)O [compound 10, Inp-S-Dpr(6-FN)-1Nal-LsPT-NH2] (H-[Inp]S[Dap](Nicotinoyl(6-F))[1Nal]L[dS]PT-NH2)
-- reply > 4 h

* * *

I'd be grateful if you could share measured half-life at 3 μM for these entries.
Assay: Human liver S9 fraction stability
Format: in vitro ADME
Details: human, pooled human liver S9 fraction, pH 7.4, S9 t1/2, pooled human liver S9 fraction 1 mg/mL, peptide 3 μM, 37 °C, over 4 h
Where a SMILES comes first, the peptide text is derived from it. [ ]: non-standard residue; d: D form. The star is where a group is joined. 1Nal = N[C@@H](Cc1cccc2ccccc12)C(=O)O; Nicotinoyl(6-F) = O=C(c1ccc(F)nc1)*; hSer = N[C@@H](CCO)C(=O)O; Nle = CCCC[C@H](N)C(=O)O; Dap = NC[C@H](N)C(=O)O; Inp = O=C(O)C1CCNCC1

-- ask Indicate the recorded half-life at 3 μM value for this molecule: CC(C)C[C@@H](NC(=O)[C@H](Cc1cccc2ccccc12)NC(=O)[C@H](CNC(=O)c1ccc(F)nc1)NC(=O)[C@H](CO)NC(=O)C1CCNCC1)C(=O)N[C@@H](CO)C(=O)N1CCC[C@H]1C(=O)N[C@H](C(N)=O)[C@@H](C)O [compound 9, Inp-S-Dpr(6-FN)-1Nal-lSPT-NH2] (H-[Inp]S[Dap](Nicotinoyl(6-F))[1Nal][dL]SPT-NH2)
-- reply > 4 h

-- ask Indicate the recorded half-life at 3 μM value for this molecule: CC(C)C[C@H](NC(=O)[C@H](Cc1cccc2ccccc12)NC(=O)[C@H](CNC(=O)c1ccc(F)nc1)NC(=O)[C@H](CO)NC(=O)C1CCNCC1)C(=O)N[C@@H](CO)C(=O)N1CCC[C@H]1C(=O)N[C@H](C(N)=O)[C@@H](C)O [compound 1] (H-[Inp]S[Dap](Nicotinoyl(6-F))[1Nal]LSPT-NH2)
-- reply 1.1 h

-- ask Indicate the recorded half-life at 3 μM value for this molecule: CC(C)C[C@H](NC(=O)[C@H](Cc1cccc2ccccc12)NC(=O)[C@H](CNC(=O)c1ccc(F)nc1)NC(=O)[C@H](CO)NC(=O)C1CCNCC1)C(=O)N[C@@H](CCO)C(=O)N1CCC[C@H]1C(=O)N[C@H](C(N)=O)[C@@H](C)O [compound 17, Inp-S-Dpr(6-FN)-1Nal-L-Hse-PT-NH2] (H-[Inp]S[Dap](Nicotinoyl(6-F))[1Nal]L[hSer]PT-NH2)
-- reply 1.4 h

-- ask Indicate the recorded half-life at 3 μM value for this molecule: CC(C)C[C@H](NC(=O)[C@H](Cc1cccc2ccccc12)NC(=O)[C@H](CNC(=O)c1ccc(F)nc1)NC(=O)[C@H](CO)NC(=O)C1CCNCC1)C(=O)N[C@H](C(=O)N1CCC[C@H]1C(=O)N[C@H](C(N)=O)[C@@H](C)O)[C@@H](C)O [compound 16, Inp-S-Dpr(6-FN)-1Nal-LTPT-NH2] (H-[Inp]S[Dap](Nicotinoyl(6-F))[1Nal]LTPT-NH2)
-- reply 1.25 h

-- ask Indicate the recorded half-life at 3 μM value for this molecule: CC(C)C[C@H](NC(=O)[C@H](Cc1cccc2ccccc12)NC(=O)[C@H](CNC(=O)c1ccc(F)nc1)NC(=O)[C@H](CO)NC(=O)C1CCNCC1)C(=O)N[C@@H](CCC(N)=O)C(=O)N1CCC[C@H]1C(=O)N[C@H](C(N)=O)[C@@H](C)O [compound 19, Inp-S-Dpr(6-FN)-1Nal-LQPT-NH2] (H-[Inp]S[Dap](Nicotinoyl(6-F))[1Nal]LQPT-NH2)
-- reply 2.03 h

-- ask Indicate the recorded half-life at 3 μM value for this molecule: CCCC[C@H](NC(=O)[C@H](Cc1cccc2ccccc12)NC(=O)[C@H](CNC(=O)c1ccc(F)nc1)NC(=O)[C@H](CO)NC(=O)C1CCNCC1)C(=O)N[C@@H](CO)C(=O)N1CCC[C@H]1C(=O)N[C@H](C(N)=O)[C@@H](C)O [compound 13, Inp-S-Dpr(6-FN)-1Nal-Nle-SPT-NH2] (H-[Inp]S[Dap](Nicotinoyl(6-F))[1Nal][Nle]SPT-NH2)
-- reply 0.55 h

-- ask Indicate the recorded half-life at 3 μM value for this molecule: CC(C)C[C@H](NC(=O)[C@H](Cc1cccc2ccccc12)NC(=O)[C@H](CNC(=O)c1ccc(F)nc1)NC(=O)[C@H](CO)NC(=O)C1CCNCC1)C(=O)N[C@@H](C(=O)N1CCC[C@H]1C(=O)N[C@H](C(N)=O)[C@@H](C)O)[C@H](C)O [compound 12, Inp-S-Dpr(6-FN)-1Nal-LtPT-NH2] (H-[Inp]S[Dap](Nicotinoyl(6-F))[1Nal]L[dT]PT-NH2)
-- reply > 4 h
